Source: patent US11453683B1

# Test system: KRas G12D-mediated phosphorylation of ERK
# PROCEDURE TEXT: Inhibition of KRas G12D-mediated phosphorylation of ERK in AGS cells
# Assay type: cell-based
# ASSAY CONTEXT: Homo sapiens; AGS cells expressing G12D, 3 hours, phospho-ERK normalized to GAPDH
# pIC50 listing for each entry below
A value of pIC50 is the negative decimal logarithm of a concentration given in moles per litre.

Some compounds with known pIC50 results, for comparison:
| COMPOUND | pIC50 |
| --- | --- |
| FCCCc1cccc2cccc(-c3ncc4c(N5C[C@H]6CC[C@@H](C5)N6)nc(OCC56CCCN5CCC6)nc4c3F)c12 [Example 255] | 6.17 |
| Nc1cccc(CCOc2nc(N3C[C@H]4CC[C@@H](C3)N4)c3cnc(-c4cc(O)cc5ccccc45)c(F)c3n2)n1 [Example 139] | 5.28 |

Value of measured pIC50 for the entry Fc1c(-c2c(C(F)(F)F)ccc3[nH]ncc23)ncc2c(N3CC4CCC(C3)N4)nc(OCC34CCCN3C[C@H](F)C4)nc12 (mixture of isomers) [Example 343] : 5.79

Value of measured pIC50 for the entry OCC#Cc1cccc2cccc(-c3ncc4c(N5C[C@H]6CC[C@@H](C5)N6)nc(OCC56CCCN5CCC6)nc4c3F)c12 [Example 193] : 5.07

Value of measured pIC50 for the entry CC(C)N1CCC[C@H]1COc1nc(N2C[C@H]3CC[C@@H](C2)N3)c2cnc(-c3cccc4cccc(Cl)c34)c(F)c2n1 [Example 29] : 4.87

Value of measured pIC50 for the entry O=C(OC[C@H]1CC[C@@]2(COc3nc(N4CC5CCC(C4)N5)c4cnc(-c5cccc6cccc(Cl)c56)c(F)c4n3)CCCN12)N1CCCC1 [Example 443] : 6.80

Value of measured pIC50 for the entry CC1(N)CN(c2nc(N3C[C@H]4CC[C@@H](C3)N4)c3cnc(-c4cc(O)cc5ccccc45)c(F)c3n2)C1 [Example 124] : 4.96

Value of measured pIC50 for the entry CN1C[C@H](F)C[C@H]1COc1nc(N2C[C@H]3CC[C@@H](C2)N3)c2cnc(-c3cc(O)cc4ccccc34)c(F)c2n1 [Example 16] : 5.42

Value of measured pIC50 for the entry COC1(OC)CN2CCCC2(COc2nc(N3C[C@H]4CC[C@@H](C3)N4)c3cnc(-c4cccc5cccc(Cl)c45)c(F)c3n2)C1 (stereo partly shown) [Example 404] : 5.08

Value of measured pIC50 for the entry CNc1nc(N2CC3CCC(C2)N3)c2cnc(-c3cc(O)cc4ccccc34)c(F)c2n1 [Example 183] : 5.28

Value of measured pIC50 for the entry Fc1c(-c2ccccc2C2CC2)ncc2c(N3C[C@H]4CC[C@@H](C3)N4)nc(OCC34CCCN3CCC4)nc12 [Example 297] : 5.18

====

# IC50 listing for each entry below
# System: KRas G12D-mediated phosphorylation of ERK
# PROCEDURE TEXT: Inhibition of KRas G12D-mediated phosphorylation of ERK in AGS cells
# Assay type: cell-based
# ASSAY CONTEXT: Homo sapiens; AGS cells expressing G12D, 3 hours, phospho-ERK normalized to GAPDH
Write it as a number; the unit µM goes unstated.

Some molecules with known IC50 results, for comparison:
| MOLECULE | IC50 (µM) |
| --- | --- |
| Fc1c(-c2cccc(Cl)c2Cl)ncc2c(N3C[C@H]4CC[C@@H](C3)N4)nc(OCC34CCCN3CCC4)nc12 | 3.68 |
| CSc1cccc2cc(O)cc(-c3ncc4c(N5CC6CCC(C5)N6)nc(OCC56CCCN5C[C@H](F)C6)nc4c3F)c12 (mixture of isomers) | 0.0105 |

Value of measured IC50 for the entry COC(=O)C12CCC(CN(c3nc(OC[C@@H]4CCCN4C)nc4c(F)c(-c5cc(O)cc6ccccc56)ncc34)C1)N2 (stereo partly drawn) [Example 158, bis(2,2,2-trifluoroacetate)] : 4.22
